test system: Cholinesterase (Equus caballus)
Sequence (P81908 whole entry): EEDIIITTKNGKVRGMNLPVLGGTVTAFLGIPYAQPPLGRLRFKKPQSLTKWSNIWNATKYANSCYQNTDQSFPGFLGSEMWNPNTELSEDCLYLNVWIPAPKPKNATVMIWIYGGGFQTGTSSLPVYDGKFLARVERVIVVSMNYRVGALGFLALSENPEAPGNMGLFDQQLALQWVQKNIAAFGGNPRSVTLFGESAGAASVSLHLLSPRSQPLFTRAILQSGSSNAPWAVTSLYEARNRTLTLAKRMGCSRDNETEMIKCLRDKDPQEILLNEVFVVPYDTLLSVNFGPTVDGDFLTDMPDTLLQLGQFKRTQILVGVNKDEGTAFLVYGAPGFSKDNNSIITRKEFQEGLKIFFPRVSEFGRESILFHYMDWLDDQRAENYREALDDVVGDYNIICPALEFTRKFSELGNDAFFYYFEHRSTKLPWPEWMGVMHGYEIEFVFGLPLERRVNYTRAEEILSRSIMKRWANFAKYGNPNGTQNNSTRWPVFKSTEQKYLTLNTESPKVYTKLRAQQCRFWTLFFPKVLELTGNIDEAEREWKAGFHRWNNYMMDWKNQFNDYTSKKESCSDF
procedure text: Inhibition of equine serum BuChE using butyrylthiocholine iodide as substrate preincubated for 3 mins followed by substrate addition
readout kind: IC50

get_value(item= Cc1ccc(Cn2cc(COc3ccc4cc(C(=O)NC5CCN(Cc6ccccc6)CC5)c(=O)oc4c3)nn2)cc1C , readout=IC50) returns > 100 µM

====

IC50 tested on Acetylcholinesterase (Electrophorus electricus): recorded values
Sequence (O42275 whole entry): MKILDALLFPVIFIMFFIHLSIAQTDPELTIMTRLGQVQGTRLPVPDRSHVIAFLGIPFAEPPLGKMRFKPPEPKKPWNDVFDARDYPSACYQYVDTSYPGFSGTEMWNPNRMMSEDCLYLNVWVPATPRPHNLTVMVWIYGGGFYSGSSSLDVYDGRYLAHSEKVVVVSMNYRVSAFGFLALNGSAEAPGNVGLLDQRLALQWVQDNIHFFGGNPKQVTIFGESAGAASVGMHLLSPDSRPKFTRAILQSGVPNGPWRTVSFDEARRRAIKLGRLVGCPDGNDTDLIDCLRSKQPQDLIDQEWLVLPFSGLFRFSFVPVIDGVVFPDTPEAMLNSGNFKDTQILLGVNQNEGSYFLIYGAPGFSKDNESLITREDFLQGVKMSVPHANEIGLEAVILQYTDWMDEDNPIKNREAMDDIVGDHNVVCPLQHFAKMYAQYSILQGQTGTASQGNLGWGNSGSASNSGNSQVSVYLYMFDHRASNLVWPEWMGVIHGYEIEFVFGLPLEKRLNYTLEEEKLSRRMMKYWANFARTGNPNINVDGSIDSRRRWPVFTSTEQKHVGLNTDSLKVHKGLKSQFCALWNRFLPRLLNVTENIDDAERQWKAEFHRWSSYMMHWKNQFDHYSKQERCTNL
A number alone suffices; assume µM.

Cc1ccc(OCc2nn3c(-c4cccc(Br)c4)nnc3s2)cc1 : 0.117

Reported IC50 (Acetylcholinesterase (Electrophorus electricus)) for entry CN(C)C(=O)Oc1cccc([N+](C)(C)C)c1 is 16.3

====

IC50 values by entry
test system: Acetylcholinesterase (Electrophorus electricus)
procedure text: Inhibition of electric eel AChE using acetylthiocholine iodide as substrate preincubated for 3 mins followed by substrate addition

Known IC50 results, listed for orientation:
O=C(NC1CCN(Cc2ccccc2)CC1)c1cc2ccc(OCc3cn(Cc4ccccc4Cl)nn3)cc2oc1=O : 3.29 to 29.4 µM
O=C(NC1CCN(Cc2ccccc2)CC1)c1cc2ccc(OCc3cn(Cc4ccccc4Br)nn3)cc2oc1=O : 3.29 to 29.4 µM
O=C(NC1CCN(Cc2ccccc2)CC1)c1cc2ccc(OCc3cn(Cc4ccc(Cl)c(Cl)c4)nn3)cc2oc1=O : 3.29 to 29.4 µM
O=C(NC1CCN(Cc2ccccc2)CC1)c1cc2ccc(OCc3cn(Cc4ccc(F)cc4)nn3)cc2oc1=O : 3.29 to 29.4 µM

get_value(item= Cc1ccc(Cn2cc(COc3ccc4cc(C(=O)NC5CCN(Cc6ccccc6)CC5)c(=O)oc4c3)nn2)cc1C , readout=IC50) returns 1.8 µM

get_value(item= O=C(NC1CCN(Cc2ccccc2)CC1)c1cc2ccc(OCc3cn(Cc4cccc(Cl)c4Cl)nn3)cc2oc1=O , readout=IC50) returns 3.29 to 29.4 µM

Ref: ChEMBL document CHEMBL4364324
